measured target: T1, Coagulation Factor Xa, from uman plasma (human, UniProt P00742 41-179; P00742 235-488, limits assumed)
T1 construct: purified natural enzyme, bought; also called FXa
T1 sequence (P00742 41-179 limits assumed, chain 1 of 2): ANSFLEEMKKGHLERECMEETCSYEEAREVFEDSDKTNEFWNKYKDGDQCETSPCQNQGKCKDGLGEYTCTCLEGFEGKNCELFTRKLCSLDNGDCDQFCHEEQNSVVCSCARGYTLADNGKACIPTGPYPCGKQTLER
T1 sequence (P00742 235-488 limits assumed, chain 2 of 2): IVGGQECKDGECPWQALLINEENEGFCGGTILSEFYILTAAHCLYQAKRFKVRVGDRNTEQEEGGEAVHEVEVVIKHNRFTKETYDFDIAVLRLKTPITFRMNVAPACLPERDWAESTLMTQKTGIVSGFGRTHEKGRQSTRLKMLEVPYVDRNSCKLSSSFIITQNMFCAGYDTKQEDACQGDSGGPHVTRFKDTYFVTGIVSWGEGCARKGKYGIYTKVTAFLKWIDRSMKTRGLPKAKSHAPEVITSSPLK
test summary: enzyme inhibition, pNA substrate
assay readout: % inhibition at 100 µM

Given XCTASIPPQCY (HELM PEPTIDE1{[CCCCCC[C@H](N[*:1])C(=O)[*:2]].C.T.A.S.I.P.P.Q.C.Y.[dP].P}$PEPTIDE1,PEPTIDE1,2:R3-10:R3|PEPTIDE1,PEPTIDE1,1:R1-13:R2$$$V2.0; SMILES CCCCCC[C@@H]1NC(=O)[C@@H]2CCCN2C(=O)[C@H]2CCCN2C(=O)[C@H](Cc2ccc(O)cc2)NC(=O)[C@@H]2CSSC[C@H](NC1=O)C(=O)N[C@@H]([C@@H](C)O)C(=O)N[C@@H](C)C(=O)N[C@@H](CO)C(=O)N[C@@H]([C@@H](C)CC)C(=O)N1CCC[C@H]1C(=O)N1CCC[C@H]1C(=O)N[C@@H](CCC(N)=O)C(=O)N2, also called Ex. 99) [Example 99] , state its recorded % inhibition at 100 µM.
0%
